// data source = patent US8536168B2

// endpoint IC50 / system human Smoothened receptor (Homo sapiens)

MOLECULE | RESULT
c1ccc(Cc2nnc(N3CCN(c4ccc(CNC5CCOCC5)cn4)CC3)c3ccccc23)cc1 | 100 to 1000 nM
CN1CCN(C(=O)c2ccc(N3CCN(c4nnc(Cc5ccccc5)c5ccccc45)CC3)nc2)CC1 [Example 54i] | 1000 to 10000 nM
CC(C)CC(=O)NCc1ccc(N2CCN(c3nnc(Cc4ccccc4)c4ccccc34)CC2)cc1 [Example 78c] | < 100 nM
COc1ccc(CN2Cc3c(Cc4ccccc4)nnc(N4CCN(c5ccc(C(F)(F)F)cn5)CC4)c3C2)cc1 | 1000 to 10000 nM
CC(C)(O)CNC(=O)c1ccc(N2CCN(c3nnc(Cc4ccccc4)c4ccccc34)CC2)nc1 [Example 54u] | 100 to 1000 nM
CC(C)(O)Cc1ccc(N2CCN(c3nnc(Cc4ccccc4)c4ccccc34)CC2)nc1 | < 100 nM
FC(F)(F)c1ccc(N2CCN(c3nnc(Cc4ccccc4)c4occc34)CC2)nc1 | 100 to 1000 nM
COC(=O)Nc1ccc(N2CCN(c3nnc(Cc4ccccc4)c4ccccc34)CC2)nc1 | 100 to 1000 nM
CN(C)C(=O)c1ccc(N2CCN(c3nnc(Cc4ccccc4)c4ccccc34)CC2)nc1 [Example 54s] | 100 to 1000 nM
CN(CCO)C(=O)c1cnc(N2CCN(c3nnc(Cc4ccccc4)c4ccccc34)CC2)nc1 [Example 54cc] | 100 to 1000 nM

Entry N#Cc1ccc(C(=O)N2CCC(c3cn(Cc4ccc(F)cc4)c4ccccc34)CC2)cc1 under human Smoothened receptor (Homo sapiens) had IC50 of 100 to 1000 nM

Entry CC1(c2ccc(N3CCN(c4nnc(Cc5ccccc5)c5ccccc45)CC3)nc2)OCCO1 under human Smoothened receptor (Homo sapiens) had IC50 of < 100 nM

Entry N#Cc1ccc(Cn2cc(C3CCN(c4ccc(C(F)(F)F)cn4)CC3)c3ccccc32)cc1 under human Smoothened receptor (Homo sapiens) had IC50 of 100 to 1000 nM

Entry OC(c1ccc(N2CCN(c3nnc(Cc4ccccc4)c4ccccc34)CC2)nc1)(C(F)(F)F)C(F)(F)F under human Smoothened receptor (Homo sapiens) had IC50 of < 100 nM

Entry NC(=O)c1ccc(N2CCN(c3nnc(Cc4ccccc4)c4ccccc34)CC2)nc1 under human Smoothened receptor (Homo sapiens) had IC50 of 100 to 1000 nM

Entry NS(=O)(=O)c1ccc(N2CCN(c3nnc(Cc4ccccc4)c4ccccc34)CC2)nc1 under human Smoothened receptor (Homo sapiens) had IC50 of < 100 nM

====

System: Gli-luciferase activity
PROTOCOL_TEXT: Reporter gene assay (RGA) in TMHh12 cells, antagonism of Gli-luciferase activity in the presence of a Smo agonist
Assay type: cell-based
TEST_SETTINGS: 25 nM small molecule Smo agonist, read-out: RGA (25 nM Smo agonist) IC50
pIC50: −log10 of the molar value.
PROPERTY_NAME: pIC50

COMPOUND | pIC50
N#Cc1ccc(N2CCCN(c3nnc(Cc4ccccc4)c4ccccc34)CC2)nc1 [Example 19] | 6.00 to 7.00
Cc1cc(Cc2nnc(N3CCN(c4ccccc4)CC3)c3ccccc23)ccn1 [Example 11] | 4.40 to 5.00
O=C(c1ccc(N2CCN(c3nnc(Cc4ccccc4)c4ccccc34)CC2)nc1)N1CCSC1 [Example 54p] | 6.00 to 7.00
O=C(NCc1ccc(N2CCN(c3nnc(Cc4ccccc4)c4ccccc34)CC2)cc1)OCc1ccccc1 [Example 77] | 5.00 to 6.00
CCOC(=O)c1ccc(N2CCN(c3nnc(Cc4ccccc4)c4ccccc34)C[C@H]2C)nc1 [Example 144] | 6.00 to 7.00

Memo: CC(=O)NCc1ccc(N2CCN(c3nnc(Cc4ccncc4)c4ccccc34)CC2)cc1 [Example 76] , reported pIC50: 4.40 to 5.00

Memo: CC1(c2ccc(N3CCN(c4nnc(Cc5ccccc5)c5ccccc45)CC3)nc2)OCCO1 [Example 164] , reported pIC50: > 7.00

Memo: CN(CCO)C(=O)c1ccc(N2CCN(c3nnc(Cc4ccc(Cl)c(Cl)c4)c4ccccc34)CC2)nc1 [Example 201] , reported pIC50: 6.00 to 7.00

====

// endpoint IC50 / system human Smoothened receptor (Homo sapiens, UniProt Q99835)

# example entries with known answers
MOLECULE | SYSTEM_UNDER_TEST | IC50
CCC(=O)NCc1ccc(N2CCN(c3nnc(Cc4ccccc4)c4ccccc34)CC2)nc1 | human Smoothened receptor (Homo sapiens, UniProt Q99835) | 100 to 1000 nM
O=C1CN(c2nnc(Cc3ccccc3)c3ccccc23)CCN1c1ccccc1 | human Smoothened receptor (Homo sapiens, UniProt Q99835) | 100 to 1000 nM
CC(O)c1ccc(N2CCN(c3nnc(Cc4ccccc4)c4ccccc34)CC2)nc1 (centres unmarked) | human Smoothened receptor (Homo sapiens, UniProt Q99835) | < 100 nM
CN(C)C(=O)c1cnc(N2CCN(c3nnc(Cc4ccccc4)c4ccccc34)CC2)nc1 [Example 54aa] | human Smoothened receptor (Homo sapiens, UniProt Q99835) | 100 to 1000 nM

Entry N#Cc1cccc(C(=O)N2CCC(c3cn(Cc4ccc(F)cc4)c4ccccc34)CC2)c1 under human Smoothened receptor (Homo sapiens, UniProt Q99835) had IC50 of 100 to 1000 nM

Entry CCOC(=O)c1ccc(N2CCN(c3nnc(Cc4cccc(F)c4)c4ccccc34)CC2)nc1 under human Smoothened receptor (Homo sapiens, UniProt Q99835) had IC50 of < 100 nM

Entry N#Cc1ccc(N2CCN(c3nnc(Cc4cccc(Cl)c4)c4ccccc34)CC2)nc1 under human Smoothened receptor (Homo sapiens, UniProt Q99835) had IC50 of 100 to 1000 nM

Entry FC(F)(F)c1ccnc(N2CCN(c3nnc(Cc4ccccc4)c4ccccc34)CC2)n1 under human Smoothened receptor (Homo sapiens, UniProt Q99835) had IC50 of 100 to 1000 nM

====

pIC50: −log10 of the molar value.
// endpoint pIC50 / system mouse Smoothened receptor (Mus musculus, UniProt P56726)

COMPOUND | PROPERTY_NAME | RESULT
CC(=O)c1ccc(N2CCN(c3nnc(Cc4ccccc4)c4ccccc34)CC2)nc1 | pIC50 | > 7.00
COC(=O)c1ccc(C2CCN(c3nnc(Cc4ccccc4)c4ccccc34)CC2)cc1 | pIC50 | 5.00 to 6.00
C[C@@H]1CN(c2nnc(Cc3ccccc3)c3ccccc23)[C@@H](C)CN1c1ccc(C#N)cn1 | pIC50 | 6.00 to 7.00

Entry O=C(c1ccc(N2CCN(c3nnc(Cc4ccccc4)c4ccccc34)CC2)nc1)N1CC[S+]([O-])C1 (stereo not shown) [Example 54q] under mouse Smoothened receptor (Mus musculus, UniProt P56726) had pIC50 of 6.00 to 7.00

====

Tested on: Gli-luciferase activity
PROTOCOL_TEXT: Reporter gene assay (RGA) in TMHh12 cells, antagonism of Gli-luciferase activity in the presence of a Smo agonist
Type: cell-based
TEST_SETTINGS: 25 nM small molecule Smo agonist, read-out: RGA (25 nM Smo agonist) IC50
PROPERTY_NAME: IC50

# example entries with known answers
MOLECULE | RESULT
N#Cc1ccc(N2CCN(c3nnc(Cc4cccc(C#N)c4)c4ccccc34)CC2)nc1 [Example 65] | 1000 to 10000 nM
COC(=O)c1ccc(N2CCN(c3nnc(Cc4ccccc4)c4ccccc34)CC2)nn1 [Example 139] | 1000 to 10000 nM
N#Cc1ccc(N2CCN(c3nnc(Cc4cccc(F)c4)c4ccccc34)CC2)nc1 [Example 182] | 100 to 1000 nM

Memo: FC1(F)CCN(Cc2ccc(N3CCN(c4nnc(Cc5ccccc5)c5ccccc45)CC3)nc2)CC1 [Example 228] , reported IC50: 100 to 1000 nM

Memo: NS(=O)(=O)c1ccc(N2CCN(c3nnc(Cc4ccccc4)c4ccccc34)CC2)nc1 [Example 132] , reported IC50: 100 to 1000 nM

Memo: FC1CCN(Cc2ccc(N3CCN(c4nnc(Cc5ccccc5)c5ccccc45)CC3)nc2)CC1 [Example 227] , reported IC50: 100 to 1000 nM

Memo: CCc1cnc(N2CCN(c3nnc(Cc4ccccc4)c4ccccc34)CC2)nc1 [Example 43] , reported IC50: < 100 nM

Memo: c1ccc(Cc2nnc(N3CCN(c4ccc(CN(C5COC5)C5COC5)cn4)CC3)c3ccccc23)cc1 [Example 231] , reported IC50: < 100 nM

====

Test system: Gli-luciferase activity
PROTOCOL_TEXT: Reporter gene assay (RGA) in TMHh12 cells, antagonism of Gli-luciferase activity in the presence of a Smo agonist
Format: cell-based
TEST_SETTINGS: 25 nM small molecule Smo agonist, read-out: RGA (25 nM Smo agonist) IC50
PROPERTY_NAME: IC50

COMPOUND | IC50
O=C(NCc1ccc(N2CCN(c3nnc(Cc4ccncc4)c4ccccc34)CC2)cc1)OCc1ccccc1 | 10000 to 40000 nM
Clc1ccc(N2CCN(c3nnc(Cc4ccccc4)c4ccccc34)CC2)cc1Cl | 1000 to 10000 nM
NCc1ccc(N2CCN(c3nnc(Cc4ccccc4)c4ccccc34)CC2)nc1 | 100 to 1000 nM
O=C(NC1CN(C(=O)OCc2ccccc2)C1)c1ccc(N2CCN(c3nnc(Cc4ccccc4)c4ccccc34)CC2)nc1 [Example 54x] | 100 to 1000 nM
C[C@@H]1CN(c2nnc(Cc3ccccc3)c3ccccc23)CCN1c1ccc(C#N)cn1 | 100 to 1000 nM
CN(CCCO)C(=O)c1ccc(N2CCN(c3nnc(Cc4ccccc4)c4ccccc34)CC2)nc1 [Example 54t] | 100 to 1000 nM
N#Cc1ccc(N2CCN(c3nnc(Cc4ccc5ccccc5c4)c4ccccc34)CC2)nc1 | 1000 to 10000 nM
Cc1ccnc(N2CCCN(c3nnc(Cc4ccccc4)c4ccccc34)CC2)n1 | 100 to 1000 nM

Memo: FC(F)(F)c1ccc(N2CCN(c3nnc(Cc4ccccc4)c4ccoc34)CC2)nc1 , reported IC50: 1000 to 10000 nM

Memo: N#Cc1ccc(N2CCN(c3nnc(Cc4ccc(C(F)(F)F)cc4)c4ccccc34)CC2)nc1 , reported IC50: 1000 to 10000 nM

Memo: CC(=O)NCc1ccc(N2CCN(c3nnc(Cc4ccccc4)c4ccccc34)[C@@H](C)C2)nc1 , reported IC50: < 100 nM

Memo: COc1cc(=O)[nH]c(N2CCN(c3nnc(Cc4ccccc4)c4ccccc34)CC2)n1 , reported IC50: 10000 to 40000 nM

Memo: NC(=O)c1ccc(N2CCN(c3nnc(Cc4ccccc4)c4ccccc34)CC2)nc1 , reported IC50: 100 to 1000 nM

Memo: c1ccc(N2CCN(c3nnc(Cc4ccncc4)c4ccccc34)CC2)cc1 , reported IC50: 10000 to 40000 nM
